For each record, write down the corresponding Ki.
# target.of.assay: UniProt:P23975
# Sequence (P23975 whole entry): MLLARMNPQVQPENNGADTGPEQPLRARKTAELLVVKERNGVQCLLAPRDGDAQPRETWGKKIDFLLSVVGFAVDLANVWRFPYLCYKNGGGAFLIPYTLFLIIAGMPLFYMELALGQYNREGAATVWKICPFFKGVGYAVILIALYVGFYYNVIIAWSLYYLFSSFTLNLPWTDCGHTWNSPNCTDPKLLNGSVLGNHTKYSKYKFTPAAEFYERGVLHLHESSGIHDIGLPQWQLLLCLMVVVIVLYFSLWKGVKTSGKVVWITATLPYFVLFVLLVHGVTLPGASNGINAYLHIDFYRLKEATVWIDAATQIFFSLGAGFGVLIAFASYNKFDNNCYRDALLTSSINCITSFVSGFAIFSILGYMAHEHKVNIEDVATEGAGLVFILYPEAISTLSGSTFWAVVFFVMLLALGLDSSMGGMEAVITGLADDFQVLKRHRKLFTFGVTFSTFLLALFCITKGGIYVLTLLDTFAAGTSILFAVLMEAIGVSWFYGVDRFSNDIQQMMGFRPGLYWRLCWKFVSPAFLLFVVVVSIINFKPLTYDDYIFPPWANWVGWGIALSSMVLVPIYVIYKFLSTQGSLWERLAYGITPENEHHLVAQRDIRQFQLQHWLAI
# assay.remarks: biochemical
# Type: binding
# reported.conditions: HEK-hNET cells; read-out: [125I]RTI-55 binding Ki, NET
Note: unit µM is implicit; provide only the numeric part.

Answer with reported Ki of CC(=O)C1(c2ccccc2)CCN(CCCCOC(c2ccc(F)cc2)c2ccc(F)cc2)CC1 [Compound 31525]
0.114

Answer with reported Ki of OC1(c2ccc(Cl)cc2)CCN(CCCCOC(c2ccc(F)cc2)c2ccc(F)cc2)CC1 [Compound 31625]
0.217

----------
# target.of.assay: human dopamine transporter (hDAT) (Homo sapiens, UniProt Q01959)
# Sequence (Q01959 whole entry): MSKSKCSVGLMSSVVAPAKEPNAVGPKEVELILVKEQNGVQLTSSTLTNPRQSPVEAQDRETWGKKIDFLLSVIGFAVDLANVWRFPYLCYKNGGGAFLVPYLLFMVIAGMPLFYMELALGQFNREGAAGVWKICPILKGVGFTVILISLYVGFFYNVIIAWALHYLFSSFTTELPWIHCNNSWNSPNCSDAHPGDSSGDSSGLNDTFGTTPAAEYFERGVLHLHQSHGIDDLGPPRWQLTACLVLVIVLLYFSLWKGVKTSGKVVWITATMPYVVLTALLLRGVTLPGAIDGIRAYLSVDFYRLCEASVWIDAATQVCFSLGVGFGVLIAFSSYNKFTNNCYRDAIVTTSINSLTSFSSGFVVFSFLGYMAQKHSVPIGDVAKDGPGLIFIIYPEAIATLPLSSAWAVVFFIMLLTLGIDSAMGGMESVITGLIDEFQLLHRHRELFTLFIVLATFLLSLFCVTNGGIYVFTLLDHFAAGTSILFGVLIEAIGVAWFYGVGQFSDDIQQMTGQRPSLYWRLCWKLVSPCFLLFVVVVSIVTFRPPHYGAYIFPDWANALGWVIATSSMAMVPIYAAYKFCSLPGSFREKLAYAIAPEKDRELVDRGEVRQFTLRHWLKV
# assay.remarks: cell-based
value.kind: Discrimination Ratio DAT Binding/Reuptake

Lab note: human dopamine transporter (hDAT) (Homo sapiens, UniProt Q01959) assay, enter Discrimination Ratio DAT Binding/Reuptake for OC1CCN(CCCCOC(c2ccc(F)cc2)c2ccc(F)cc2)CC1 here
0.9

Lab note: human dopamine transporter (hDAT) (Homo sapiens, UniProt Q01959) assay, enter Discrimination Ratio DAT Binding/Reuptake for OC1CCCN(CCCCOC(c2ccc(F)cc2)c2ccc(F)cc2)C1 (centres unmarked) here
1.3

Lab note: human dopamine transporter (hDAT) (Homo sapiens, UniProt Q01959) assay, enter Discrimination Ratio DAT Binding/Reuptake for NC(=O)C1CCCN(CCCCOC(c2ccc(F)cc2)c2ccc(F)cc2)C1 (centres unmarked) here
0.6

Lab note: human dopamine transporter (hDAT) (Homo sapiens, UniProt Q01959) assay, enter Discrimination Ratio DAT Binding/Reuptake for Fc1ccc(C(OCCCCN2CCN(c3ccccc3)CC2)c2ccc(F)cc2)cc1 here
23.2

Lab note: human dopamine transporter (hDAT) (Homo sapiens, UniProt Q01959) assay, enter Discrimination Ratio DAT Binding/Reuptake for Fc1ccc(C(OCCCCN2CCN(c3ccccc3Cl)CC2)c2ccc(F)cc2)cc1 here
4.9

Measured values drawn from patent US6835371B1 for this set.
